- Target Of Assay: T1, His-cynomolgus monkey LIGHT (cynomolgus monkey)
- T1 construct: also called His-cynoLIGHT
- T1 chain: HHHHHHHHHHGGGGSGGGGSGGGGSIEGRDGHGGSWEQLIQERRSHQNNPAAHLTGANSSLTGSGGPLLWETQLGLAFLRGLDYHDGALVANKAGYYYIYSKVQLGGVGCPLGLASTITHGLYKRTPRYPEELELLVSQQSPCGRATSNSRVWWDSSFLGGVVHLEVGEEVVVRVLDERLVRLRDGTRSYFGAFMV
- Procedure Text: ELISA, His-cynoLIGHT coated
Recorded Endpoint: EC50 (pM)
One number for each entry, in pM.

Exam item: For the binder shown here, hum_LT-m37-5 (antibody, human IgG4, V domains shown, humanized from LT-m37) VH: QVQLVQSGAEVKKPGASVKVSCKASGYSFTGYFINWVRQAPGQSLEWIGRIYPYNVNTFYNQNFKGRATLTADKSTSTAYMELSSLRSEDTAVYYCGRGTHYYGSSGAMDYWGQGTLVTVSS VL: EIVMTQSPATLSVSPGERATLSCKASQNVGTAVAWYQQKPGQSPRLLIYSASNRYTGIPARFSGSGSGTEFTLTISSLQSEDFAVYFCQQYSSYPYTFGGGTKVEIK , give the reported EC50.
Marked response: 51.4
